Assay: Toxicity in orally dosed Kunming mouse assessed as inability of animal to maintain equilibrium on rod for at least 1 min in each trial by rotarod test
Type: organism-based
Settings: in vivo, po
assay-metric: TD50 at 1 min (mg/kg)
Give bare numbers, in mg/kg.

Give its TD50 at 1 min value. Item: NC(=O)N1c2ccccc2C=Cc2ccccc21 [CARBAMAZEPINE]
329
